# Target Desc: T1, hen egg lysozyme (Gallus gallus (hen egg white), UniProt P00698)
# T1 construct: hen egg lysozyme (HEL), antigen of VHH D3-L11; also in the complex structure PDB 6JB8; also called HEL; antigen lysozyme; source: bought: Sigma-Aldrich, Cat No. L6876 (named for the ELISA)
# T1 sequence (P00698 19-147): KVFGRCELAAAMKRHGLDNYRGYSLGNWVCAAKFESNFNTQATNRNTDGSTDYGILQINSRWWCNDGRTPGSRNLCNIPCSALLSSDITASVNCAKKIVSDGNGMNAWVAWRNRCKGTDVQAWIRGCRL
# Procedure Text: SPR; Biacore T200; lysozyme immobilised on Sensor Chip CM5 by amine coupling to 200 RU; VHH injected 300 s, dissociation 600 s; running buffer PBST (PBS, 0.005% Tween 20); duplicate; 1:1 binding model
# Conditions: both partners purified
Outcome Measure: fold decrease in affinity (KD) against wild type

D3-L11 A79F (VHH, as the VHH chain of m2 (D3-L11, PDB 6JB8) with the stated substitution; First-round mutant; same construct as m2; also called F mutant; source: ExpiCHO, transient transfection, purified from supernatant (His Mag Sepharose excel); not shown: His6 (after a SAG tripeptide linker), C-terminal, kept) VHH: DVQLVESGGGSVQAGGSLRLSCAASGSTDSIEYMTWFRQAPGKAREGVAALYTHTGNTYYTDSVKGRFTISQDKAKNMFYLRMDSVKSEDTAIYTCGATRKYVPVRFALDQSSYDYWGQGTQVTVSS; < 10 fold

Lab note: D3-L11 A79Y (VHH, as the VHH chain of m2 (D3-L11, PDB 6JB8) with the stated substitution; Second-round mutant; same construct as m2; also called Y mutant; source: ExpiCHO, transient transfection, purified from supernatant (His Mag Sepharose excel); not shown: His6 (after a SAG tripeptide linker), C-terminal, kept) VHH: DVQLVESGGGSVQAGGSLRLSCAASGSTDSIEYMTWFRQAPGKAREGVAALYTHTGNTYYTDSVKGRFTISQDKAKNMYYLRMDSVKSEDTAIYTCGATRKYVPVRFALDQSSYDYWGQGTQVTVSS gave fold decrease in affinity (KD) against wild type of < 2 fold
